Data provenance is patent US9718823B2.

# targetOfAssay: PI3K α (Homo sapiens, UniProt P42336)
# Construct: purchased Millipore 14-602
# Sequence (P42336 whole entry): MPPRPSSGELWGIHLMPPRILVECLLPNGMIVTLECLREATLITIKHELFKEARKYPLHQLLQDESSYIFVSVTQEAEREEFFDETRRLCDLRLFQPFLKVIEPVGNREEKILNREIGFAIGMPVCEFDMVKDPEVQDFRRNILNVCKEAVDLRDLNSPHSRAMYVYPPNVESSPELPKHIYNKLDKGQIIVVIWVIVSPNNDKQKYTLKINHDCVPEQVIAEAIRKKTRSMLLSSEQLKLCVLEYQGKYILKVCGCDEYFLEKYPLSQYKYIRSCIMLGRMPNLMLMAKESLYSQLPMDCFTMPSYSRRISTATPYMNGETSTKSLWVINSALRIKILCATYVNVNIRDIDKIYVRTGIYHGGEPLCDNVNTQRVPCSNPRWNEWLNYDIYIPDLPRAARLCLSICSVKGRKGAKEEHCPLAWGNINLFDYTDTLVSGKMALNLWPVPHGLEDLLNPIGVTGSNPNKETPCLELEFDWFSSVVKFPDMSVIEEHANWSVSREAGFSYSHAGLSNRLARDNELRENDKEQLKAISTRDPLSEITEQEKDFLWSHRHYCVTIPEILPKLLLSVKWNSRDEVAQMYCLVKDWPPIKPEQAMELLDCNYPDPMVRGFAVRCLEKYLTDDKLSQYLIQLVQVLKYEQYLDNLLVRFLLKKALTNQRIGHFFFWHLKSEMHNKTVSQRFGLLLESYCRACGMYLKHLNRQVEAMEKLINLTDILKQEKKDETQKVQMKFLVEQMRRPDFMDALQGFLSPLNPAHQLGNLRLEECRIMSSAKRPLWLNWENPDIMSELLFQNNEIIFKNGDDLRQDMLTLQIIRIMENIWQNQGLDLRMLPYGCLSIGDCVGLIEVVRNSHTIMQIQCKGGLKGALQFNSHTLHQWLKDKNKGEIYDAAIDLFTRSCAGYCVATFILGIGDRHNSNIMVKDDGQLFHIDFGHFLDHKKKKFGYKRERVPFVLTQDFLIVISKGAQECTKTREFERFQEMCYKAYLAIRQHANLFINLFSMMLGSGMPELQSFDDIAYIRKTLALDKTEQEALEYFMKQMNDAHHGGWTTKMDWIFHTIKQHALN
# Sequence (P27986 whole entry partner): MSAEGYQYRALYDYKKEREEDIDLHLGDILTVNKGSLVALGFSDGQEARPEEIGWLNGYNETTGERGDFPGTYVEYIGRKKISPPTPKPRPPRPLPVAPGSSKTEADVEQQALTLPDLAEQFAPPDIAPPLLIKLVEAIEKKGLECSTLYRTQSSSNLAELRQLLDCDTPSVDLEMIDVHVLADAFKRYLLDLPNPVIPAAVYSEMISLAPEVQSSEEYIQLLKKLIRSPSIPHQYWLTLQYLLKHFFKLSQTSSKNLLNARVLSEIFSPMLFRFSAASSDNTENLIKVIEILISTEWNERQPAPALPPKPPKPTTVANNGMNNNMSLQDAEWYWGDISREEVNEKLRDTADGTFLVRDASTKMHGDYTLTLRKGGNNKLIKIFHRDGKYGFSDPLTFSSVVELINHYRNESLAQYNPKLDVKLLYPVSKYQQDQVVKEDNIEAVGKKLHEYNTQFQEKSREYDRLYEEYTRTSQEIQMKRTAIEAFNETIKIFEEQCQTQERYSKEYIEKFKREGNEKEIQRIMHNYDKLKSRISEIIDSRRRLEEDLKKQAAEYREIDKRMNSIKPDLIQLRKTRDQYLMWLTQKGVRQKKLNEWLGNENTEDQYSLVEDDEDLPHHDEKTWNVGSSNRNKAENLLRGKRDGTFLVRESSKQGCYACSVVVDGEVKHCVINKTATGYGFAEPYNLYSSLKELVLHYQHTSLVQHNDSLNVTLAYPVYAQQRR
# assayComment: Inhibitory activity to PI3K α, PI 3-Kinase (human) HTRF Assay kit
# Type: biochemical
# appliedConditions: 1 μM; read-out: % Inhibition Rate to PI3K α
# Text: Study on the inhibitory activity of the compounds of present invention to PI 3κα, PI3κδ and PI3κγ. Two or three concentrations of the compounds are selected to preliminary screening to calculate respectively the activity inhibition rate of the compounds of corresponding concentrations to enzyme, then the compounds with better activity are selected by preliminary screening for IC50 test. PI 3-Kinase (human) HTRF™ Assay kit (Cat.33-017, Millipore) PI 3k α (Cat.14-602, Millipore) […]
recordedMetric: inhibition at 1 µM (%)
Write the number in % without appending the unit.

Recorded inhibition at 1 µM, per entry:
[[record]]
smi = "c1cnc2ccc(Nc3nc(OC4CCC4)c4nc[nH]c4n3)cc2c1"
recordedmetric = "inhibition at 1 µM"
result = 56.3

[[record]]
smi = "COc1ccc(-c2ccnc3ccc(Nc4nc(NC5CC5)c5nc[nH]c5n4)cc23)cc1OC"
recordedmetric = "inhibition at 1 µM"
result = 58.7

[[record]]
smi = "c1ccc(-c2ccnc3ccc(Nc4nc(NC5CCC5)c5nc[nH]c5n4)cc23)cc1"
recordedmetric = "inhibition at 1 µM"
result = 11.1

[[record]]
smi = "COc1ccccc1-c1ccnc2ccc(Nc3nc(NC4CC4)c4nc[nH]c4n3)cc12"
recordedmetric = "inhibition at 1 µM"
result = 19.2


### Prompt Look up inhibition at 1 µM: CCC(CC)Oc1nc(Nc2ccc3nccc(-c4ccccc4)c3c2)nc2[nH]cnc12
### Response 60.4

### Prompt Look up inhibition at 1 µM: c1ccc(-c2ccnc3ccc(Nc4nc(OC5CCC5)c5nc[nH]c5n4)cc23)cc1
### Response 102

### Prompt Look up inhibition at 1 µM: CC(C)Oc1nc(Nc2ccc3ncccc3c2)nc2[nH]cnc12
### Response 60.3

### Prompt Look up inhibition at 1 µM: COc1cccc(-c2ccnc3ccc(Nc4nc(NC5CCC5)c5nc[nH]c5n4)cc23)c1
### Response 10.4

### Prompt Look up inhibition at 1 µM: NCCNc1nc(Nc2ccc3nccc(-c4ccccc4)c3c2)nc2[nH]cnc12
### Response 26.6

### Prompt Look up inhibition at 1 µM: CC(C)Nc1nc(Nc2ccc3nccc(-c4ccccc4)c3c2)nc2[nH]cnc12
### Response 49.5

### Prompt Look up inhibition at 1 µM: c1ccc(-c2ccnc3ccc(Nc4nc(N5CCCC5)c5nc[nH]c5n4)cc23)cc1
### Response 55.3
